Target: Endothelial lipase (EL) (Homo sapiens)
Construct: HT-1080 cells that were transformed using RAGE technology (Athersys) to overexpress endogenous EL; endogenous in cells; conditioned medium used
Sequence (Q9Y5X9 21-500): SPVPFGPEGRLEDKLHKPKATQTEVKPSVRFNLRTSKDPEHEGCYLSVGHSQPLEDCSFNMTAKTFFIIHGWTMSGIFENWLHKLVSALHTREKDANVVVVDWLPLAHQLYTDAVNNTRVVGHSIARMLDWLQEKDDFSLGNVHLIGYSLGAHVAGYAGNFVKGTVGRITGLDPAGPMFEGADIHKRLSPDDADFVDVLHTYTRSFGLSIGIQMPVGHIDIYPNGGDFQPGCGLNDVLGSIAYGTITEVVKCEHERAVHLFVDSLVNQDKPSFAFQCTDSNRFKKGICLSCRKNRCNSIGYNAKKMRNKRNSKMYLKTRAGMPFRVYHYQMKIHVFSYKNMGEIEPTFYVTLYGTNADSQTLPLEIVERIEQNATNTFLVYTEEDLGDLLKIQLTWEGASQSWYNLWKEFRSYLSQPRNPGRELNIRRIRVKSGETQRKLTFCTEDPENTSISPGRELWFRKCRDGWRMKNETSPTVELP
Assay: Endothelial lipase (EL) enzymatic assay, fluorescent substrate A10070 in DMPG vesicles
Assay type: biochemical
Conditions: EL from conditioned media of HT-1080 cells; compound preincubated 30 min at 37° C; read-out: EL IC50
Hi there, I'd appreciate the recorded IC50 for every entry that follows.

NS(=O)(=O)NCc1nnc(C(c2nc3ccc(-c4cc(F)nc(F)c4)cc3s2)S(=O)(=O)Cc2ccccc2)o1 (stereo not shown) = < 0.01 µM
NS(=O)(=O)NCc1nnc(C(c2nc3ccc(-c4ccccc4)cc3s2)S(=O)(=O)C2CCCC2)o1 (stereo not shown) = < 0.01 µM
NS(=O)(=O)NCc1nnc(C(c2nc3ccc(-c4ccccc4)cc3s2)S(=O)(=O)Cc2ccc(C(F)(F)F)cc2)o1 (stereo not shown) = < 0.01 µM
COc1cc(-c2ccc3nc(C(c4nnc(CNS(N)(=O)=O)o4)S(=O)(=O)Cc4ccccc4)sc3c2)ccn1 (stereo not shown) = < 0.01 µM
CC(C)(C)OC(=O)N1CC(S(=O)(=O)C(c2nnc(CS(N)(=O)=O)o2)c2nc3ccc(-c4ccccc4)cc3s2)C1 (stereo not shown) = < 0.01 µM
NS(=O)(=O)NCc1nnc(C(c2nc3ccc(-c4ccccc4)cc3s2)S(=O)(=O)Cc2cccc(Cl)c2)o1 (stereo not shown) = < 0.01 µM

Hi there! I need IC50 for each item below, if you can.
1. Cc1cc(-c2ccc3nc(C(c4nnc(CNS(N)(=O)=O)o4)S(C)(=O)=O)sc3c2)n(C)n1 (stereo not shown)
2. CC(C)(C)OC(=O)NS(=O)(=O)NCc1nnc(C(c2nc3ccc(-c4cncnc4)cc3s2)S(=O)(=O)Cc2ccccc2)o1 (stereo not shown)
3. CS(=O)(=O)C(c1nnc(CNS(N)(=O)=O)o1)c1nc2ccc(-c3cccc(C(=O)N4CCC4)c3)cc2s1 (stereo not shown)
4. COCCN(C)C(=O)c1cccc(-c2ccc3nc(C(c4nnc(CC5(C)NC(=O)NC5=O)o4)S(C)(=O)=O)sc3c2)c1 (stereo not shown)
5. COC1CN(C(=O)c2cccc(-c3ccc4nc(C(c5nnc(CC6(C)NC(=O)NC6=O)o5)S(C)(=O)=O)sc4c3)c2)C1 (stereo not shown)

Result:
["0.018 µM", "0.147 µM", "0.019 µM", "0.038 µM", "0.018 µM"]

Dear reader, for each entry below, please note its IC50.
1. CS(=O)(=O)C(c1nnc(CC2SC(=O)NC2=O)o1)c1nc2ccc(C3=CCOCC3)cc2s1 (stereo not shown)
2. NS(=O)(=O)NCc1nnc(C(c2nc3ccc(-c4cnn(-c5ccc(F)cc5)c4)cc3s2)S(=O)(=O)Cc2ccccc2)o1 (stereo not shown)
3. NS(=O)(=O)NCc1nnc(C(c2nc3ccc(-c4ccc(C(=O)N5CCOCC5)cc4)cc3s2)S(=O)(=O)CCNC(=O)OCc2ccccc2)o1 (stereo not shown)
4. NS(=O)(=O)NCc1nnc(C(c2nc3ccc(-c4ccccc4)cc3s2)S(=O)(=O)CC(O)CO)o1 (mixture of isomers)
5. CC(C)(C)OC(=O)c1cccc(-c2ccc3nc(C(c4nnc(CC5(C)NC(=O)NC5=O)o4)S(C)(=O)=O)sc3c2)c1 (stereo not shown)
6. CC(C)CS(=O)(=O)C(c1nnc(CNS(N)(=O)=O)o1)c1nc2ccc(-c3ccccc3)cc2s1 (stereo not shown)
7. CN1CCN(C(=O)c2cccc(-c3ccc4nc(C(c5nnc(CNS(N)(=O)=O)o5)S(C)(=O)=O)sc4c3)c2)CC1 (stereo not shown)
8. N#CC1(NC(=O)Cc2nnc(C(c3nc4ccc(-c5ccccc5)cc4s3)S(=O)(=O)Cc3ccccc3)o2)CC1 (stereo not shown)

Result:
< 0.01 µM
< 0.01 µM
0.02 µM
< 0.01 µM
0.033 µM
< 0.01 µM
< 0.01 µM
< 0.01 µM
